details: buffer; pH 7.4; 200.0 µM
I'd be grateful if you could share measured log10 solubility kinetic for these entries.
Scale: log10; quantity: solubility kinetic; unit before log: µg/mL

Entry "CCOC(=O)c1c(C=O)c2ccccc2n1CC" ; log10 solubility kinetic = 0.49

Entry CC(NCCC1(Cc2ccccc2Cl)CCOC(C)(C)C1)c1cccs1 (centres undefined) ; log10 solubility kinetic = 1.67

Entry COc1cccc(N2C(=O)c3cccnc3C2O)c1 (centres undefined) ; log10 solubility kinetic = 1.54

Entry N#CC1C=Cc2ccccc2N1C(=O)c1ccccc1 (centres undefined) ; log10 solubility kinetic = 1.01

Entry Clc1ccc(N2CC2c2ccncc2)cc1 (centres undefined) ; log10 solubility kinetic = 1.51

Entry "CC(C)c1ccc(OCC(=O)NC2CCCC2)cc1" ; log10 solubility kinetic = 1.48
